src = the RNAGym collection of RNA variant scans (doi:10.1126/science.aae0568)

Reported yeast fitness by item:
B1: tRNA (parent)
chain: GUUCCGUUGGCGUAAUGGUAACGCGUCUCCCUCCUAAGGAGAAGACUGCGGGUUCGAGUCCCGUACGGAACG

Variants of: B1
assay-overview: yeast fitness relative to wild type (ratio to wild type); higher = fitter; tRNA-Arg(CCU), competitive growth, 37 C, YPD
Variants at the floor of the assay were thinned out.
The reply should be a number, written without any unit.

Completed entries (count: 4):
GUUCCGUAGGGGUAAUGGUAACGCGUCUCCCUCGUAAGGAGAAGACUGCGGGUUCGAGUCCCGUACGGAACG [U8A C11G C34G] ... 0.624
GUUCGGUUGGCGUAAUGGUAACGCGUAUCCCUCCUAAGGAGAAGACUGCGGGUUCGAGUCCCGUACGGAACG [C5G C27A] ... 0.709
GUUCCGUUGGCGUAAUGGUAACGCGUCUCCCUCCUUAGGAGAAGACUGCGGGUUCGAGUCUCGUACGGAACG [A36U C61U] ... 0.693
GUUCCGUUGGCGUAAUGGGAACGCGUCUCCCUCCUAAGGAGAAGACUGCGGGUUCGAGUCCCGUGCGGAACG [U19G A65G] ... 1.03

Please report the recorded yeast fitness for GUUCCGUUGGCGUAAUGGUAACGCGUCUGCCCCCUGAGGAGAAGACUGCGGGUUCGAGUCCCGUACGGAACG [C29G U32C A36G] . 0.597
